Target: E. coli DNA gyrase (Escherichia coli, UniProt P0AES6)
Construct: made in house; host or cells: E. coli BL21 (DE3)
Experiment: Test for evaluating the activity of inhibiting E. coli DNA gyrase enzyme (Method 2, supercoiling, recombinant gyrA/gyrB complex)
Format: biochemical
Conditions: Method 2; read-out: E. Coli Gyrase supercoiling IC50
quantity-name: IC50 (nM)
Numbers only here, please. The scale is nM.

### Prompt # IC50 lookup, item CNc1cc(F)cc2cc(C(=O)Nc3ccc(C4OC(=O)NC4=O)cc3)c(=O)[nH]c12 (stereo not drawn)
### Response 1.08

### Prompt Also "CNc1cc(F)cc2cc(C(=O)Nc3ccc(C(=O)O)cc3/C=C/CCO)c(=O)[nH]c12" ?
### Response 20.6

### Prompt Same question for "CNc1cccc2cc(C(=O)NCCc3ccc(C(=O)O)cc3)c(=O)[nH]c12" please.
### Response 134

### Prompt Ok, now "CNc1cc(F)cc2cc(C(=O)Nc3ccc(C(=O)O)cc3CCN(C)C)c(=O)[nH]c12"
### Response 4.57

### Prompt Same read-out for "CNc1cc(F)cc2cc(C(=O)Nc3ccc(-c4nnn[nH]4)cc3)c(=O)[nH]c12" ?
### Response 0.55

### Prompt What do you get for "CNc1cc(F)cc2cc(C(=O)Oc3ccc(C(=O)O)cc3)c(=O)[nH]c12" ?
### Response 3450

### Prompt Note, next up: "CNc1cc(F)cc2cc(C(=O)N(C)c3cncnc3)c(=O)[nH]c12"
### Response 334

### Prompt Also check "CNc1cccc2cc(C(=O)NCCc3cccc(C(=O)O)c3)c(=O)[nH]c12"
### Response 9.75

### Prompt // query: "CNc1cc(F)cc2c(O)c(C(=O)Nc3ccccc3)c(=O)[nH]c12"
### Response 387

### Prompt Param item: "CNc1cc(F)cc2cc(CNc3ccc(C(=O)O)cc3)c(=O)[nH]c12"
### Response 2100

### Prompt Repeat with "CCc1cccc2cc(C(=O)Nc3ccc(C(=O)O)cc3)c(=O)[nH]c12"
### Response 2230

### Prompt Item: "CNc1cccc2cc(C(=O)NCCc3noc(=O)[nH]3)c(=O)[nH]c12"
### Response 71.9

### Prompt Similarly, "CNc1cc(F)cc2cc(C(=O)Nc3ccc(C(=O)NS(=O)(=O)N(C)C)cc3)c(=O)[nH]c12" ?
### Response 0.43

### Prompt What do you have for "CNc1cc(F)cc2cc(C(=O)NCCc3ccc(O)c(OC)c3)c(=O)[nH]c12" ?
### Response 110

### Prompt Here is the next compound: "CNc1cc(F)cc2c(N[C@H]3C[C@@H](N)C3)c(C(=O)Nc3ccc(C(=O)O)cc3)c(=O)[nH]c12"
### Response 2.66

### Prompt Same thing, different compound: "CNc1cc(F)cc2cc(C(=O)Nc3c(C)cc(C(=O)O)cc3CN(C)C3CCCCC3)c(=O)[nH]c12"
### Response 0.7

### Prompt Further, for "CNc1cccc2cc(C(=O)Nc3cnc(CO)nc3)c(=O)[nH]c12" ?
### Response 9.97

### Prompt How about "CNc1cc(F)cc2cc(C(=O)Nc3ccc(C(=O)O)cc3CCCCN(C)C)c(=O)[nH]c12" ?
### Response 22

### Prompt Would you mind doing "CNc1cc(F)cc2cc(C(=O)Nc3ccc(CO)cc3CN(CCO)C3CCCCC3)c(=O)[nH]c12" as well?
### Response 1.6

### Prompt Now the same for "CCCCCCCCN(CCCCCCCC)Cc1cc(C(=O)O)ccc1NC(=O)c1cc2cc(F)cc(NC)c2[nH]c1=O"
### Response 6.98

### Prompt Moving on to "CNc1cc(F)cc2cc(C(=O)Nc3ccnn3C)c(=O)[nH]c12"
### Response 29.9

### Prompt Thanks! And "CCCCCN(CCCCC)Cc1cc(C(=O)O)ccc1NC(=O)c1cc2cc(F)cc(NC)c2[nH]c1=O" ?
### Response 0.8

### Prompt Same for "CNc1cc(F)cc2cc(C(=O)Nc3cnccc3CO)c(=O)[nH]c12"
### Response 18.6

### Prompt Could you do the same for O=C(O)c1ccc(NC(=O)c2cc3ccccc3[nH]c2=O)cc1 [Reference Example 1, reference compound] , please?
### Response 7010

### Prompt Now the compound "CNc1cc(F)cc2cc(C(=O)Nc3ccc(C(=O)NS(C)(=O)=O)cc3)c(=O)[nH]c12"
### Response 0.19

### Prompt Repeat with "CCc1cc(C(=O)NCCN2CCOCC2)ccc1NC(=O)c1cc2cc(F)cc(NC)c2[nH]c1=O"
### Response 131

### Prompt For "O=C(O)c1ccc(NC(=O)c2cc3cccc(O)c3[nH]c2=O)cc1" then?
### Response 11700

### Prompt Same question, "CNc1cccc2cc(C(=O)Nc3cccc(CC(=O)O)c3)c(=O)[nH]c12" this time
### Response 164

### Prompt Same question, "CNc1cc(F)cc2cc(C(=O)Nc3ccc(C(=O)NCCN4CCOCC4)cc3)c(=O)[nH]c12" this time
### Response 7.29

### Prompt Query "CNc1cccc2cc(C(=O)Nc3cnc(NCc4csc(N)n4)nc3)c(=O)[nH]c12" next
### Response 1.47

### Prompt Next entry: "CNc1cc(F)cc2c(O)c(C(=O)Nc3cncnc3)c(=O)[nH]c12"
### Response 129

### Prompt Note, next up: "CNc1cc(F)cc2cc(C(=O)Nc3ccc(C(=O)NCCN4CCOCC4)cc3CN(C)C3CCN(C)CC3)c(=O)[nH]c12"
### Response 11.4

### Prompt Now the compound "CNc1cc(F)cc2cc(C(=O)Nc3ccccc3CN(CCO)C3CCCCC3)c(=O)[nH]c12"
### Response 3.59
